Assay: Acute oral toxicity, rats
Details: rat, in vivo, per os
measured_parameter: LD50 (mg/kg)
Return type: number; implicit unit mg/kg.

Req: What measured LD50 goes with CCC(C)N(C(=O)SCc1ccccc1)C(C)CC (stereo not shown) [M3432, S-benzyl-N,N-disec.butylthiocarbamate] ?
Resp: 10200

* * *

Test: Acute oral toxicity, mice
Details: mouse, in vivo
measured_parameter: LD50 (mg/kg)
Return type: number; implicit unit mg/kg.

Req: What measured LD50 goes with CCC(C)N(C(=O)SCc1ccccc1)C(C)CC (stereo not shown) [M3432, S-benzyl-N,N-disec.butylthiocarbamate] ?
Resp: 8000

* * *

System: rice
Assay: Outdoor comparison of rice stimulating action of M3432 with lower homologues and isomers (Example 11)
Type: in vivo
Conditions: 6 kg./ha., 21 days after sowing
Listed below: Main roots values for each entry.
Return type: number; implicit unit No..

Answered examples (3):
CCCCN(CCCC)C(=O)SCc1ccccc1 [S-benzyl-N,N-din.butyl-thiocarbamate, S-benzyl-N,N-din.butylthiocarbamate] = 2.81
CCC(C)N(C(=O)SCc1ccccc1)C(C)CC (stereo not shown) [M3432, S-benzyl-N,N-disec.butylthiocarbamate] = 5.73
CC(C)N(C(=O)SCc1ccccc1)C(C)C [S-benzyl-N,N-diisopropylthiocarbamate, S-benzyl-N,N-diisopropyl thiocarbamate] = 3.67

Req: What measured Main roots goes with CC(C)CN(CC(C)C)C(=O)SCc1ccccc1 [S-benzyl-N,N-diisobutylthiocarbamate] ?
Resp: 2.76

Value source: patent US3930838A
